target: CaRvs167-3; assay: SPOT peptide array binding signal intensity (averaged, normalized) (arbitrary units (background-subtracted, floor 0; scale differs between SH3 domains)); higher = stronger binding of the SH3 domain to the peptide
Readout type: SPOT peptide array binding signal intensity

Answered examples (6):
Q) Fill in: SPOT peptide array binding signal intensity of SPLGAPPPPPHKDHL is ___
A) ≤ 0

Q) Requested read-out: SPOT peptide array binding signal intensity. Entry: GKFIPSRPAPKPPSS
A) 3.25

Q) Look up SPOT peptide array binding signal intensity: AAHKTKPSIPPKKVE
A) ≤ 0

Q) Look up SPOT peptide array binding signal intensity: PALPSLPPPPLLNVD
A) ≤ 0

Q) Would you mind telling me what SPOT peptide array binding signal intensity value was observed for NLDRSKISLPDFDDE ?
A) 1.25

Q) Request the reported SPOT peptide array binding signal intensity associated with NHSRSLFSLPGNQQS
A) 70.5

Query binder follows.
Q) Given the entry KRKRRLPVSEDTNTK , report its measured SPOT peptide array binding signal intensity.
A) 9.75
